Please go through the items and note down their cell viability.
- System: Caco-2
- testDescription: cell viability relative to DMSO; higher = less toxic
- runConditions: 72 h; 100 nM
Reply with just the number (in %).

State its cell viability on Caco-2: c1cnc(N2CCN(Cc3ccc4c(c3)OCO4)CC2)nc1 [piribedil] 95.8

Further, for O=C1CN(/N=C/c2ccc([N+](=O)[O-])o2)C(=O)N1 [nitrofurantoin] ? 95.8

Further, for `COc1ccc2cc(OCC3(C(=O)O)CN(C(=O)c4ccc(F)cc4)C3)ccc2c1` ? 94.8

Further, for Cn1cc(-c2cnc3ccc4ccc(CS(=O)(=O)NCc5ccccn5)cc4c(=O)c3c2)cn1 [MK-8033] ? 91.8

Further, for CC(=O)[C@@]1(O)CC[C@H]2[C@@H]3C=C(Cl)C4=CC(=O)[C@@H]5C[C@@H]5[C@]4(C)[C@H]3CC[C@@]21C [CYPROTERONE] ? 112

Further, for CCCCCOc1ccc(-c2ccc(-c3ccc(C(=O)N[C@H]4C[C@@H](O)[C@@H](O)NC(=O)[C@@H]5[C@@H](O)[C@@H](C)CN5C(=O)[C@H]([C@@H](C)O)NC(=O)[C@H]([C@H](O)[C@@H](O)c5ccc(O)cc5)NC(=O)[C@@H]5C[C@@H](O)CN5C(=O)[C@H]([C@@H](C)O)NC4=O)cc3)cc2)cc1 [anidulafungin] ? 105

Further, for `OCCCNc1cc(-c2ccnc(Nc3cccc(Cl)c3)n2)ccn1` ? 91.6

Further, for Cc1cn([C@@H]2C[C@@H](O)[C@H](CO)O2)c(=O)[nH]c1=O [telbivudine] ? 99.8

Further, for CC(C)(C)c1cc(C(=O)/C(C#N)=N/Nc2cccc(Cl)c2)no1 [ESI-09] ? 104

Further, for O=C1NC(=O)C(c2ccccc2)(c2ccccc2)N1 [phenytoin] ? 88.6

Further, for Cn1c(CNc2ccc(C(=N)N)cc2)nc2cc(C(=O)N(CCC(=O)O)c3ccccn3)ccc21 [dabigatran] ? 101

Further, for CCCC(=O)OCOC(=O)C1=C(C)NC(C)=C(C(=O)OC)C1c1cccc(Cl)c1Cl (configuration not stated) [cleviprex] ? 99.1

Further, for CN(C)CC[C@@](O)(c1ccccc1)c1ccccc1Cl [clofedanol] ? 103

Further, for Nc1ncnc2c1ncn2[C@H]1CC[C@@H](CO)O1 [dideoxyadenosine] ? 94.6

Further, for CCC[C@@H]1CC(=O)N([C@@H](CC)C(N)=O)C1 [Brivaracetam] ? 93.8

Further, for NC(=O)N1c2ccccc2CC(O)c2ccccc21 (configuration not stated) [licarbazepine] ? 97.8

Further, for CC(C)C[C@H](NC(=O)[C@H](CCc1ccccc1)NC(=O)CN1CCOCC1)C(=O)N[C@@H](Cc1ccccc1)C(=O)N[C@@H](CC(C)C)C(=O)[C@@]1(C)CO1 [carfilzomib] ? 8.6

Further, for NS(=O)(=O)c1cc(C(=O)O)c(NCc2ccco2)cc1Cl [furosemide] ? 102

Further, for `COc1ccc2nc3ccc(Cl)cc3c(SCCCN)c2c1` ? 93.9

Further, for O=C(CN1CCNCC1)NC1CCCCC1 [esaprazole] ? 105

Further, for Cc1c(S(=O)(=O)O)oc2c1C(=O)C(=O)c1c-2ccc2c1CCCC2(C)C [sodium-tanshinone-II-A-sulfonate] ? 109

Further, for CC(C)NCCN(C(C)C)S(=O)(=O)c1ccc(Cl)cc1Cl [RN-1734] ? 97.1

Further, for `O=C(O)c1ccc(-c2c[nH]c3ncc(-c4ccccc4)cc23)cc1C1CCCC1` ? 101

Further, for Oc1cccc(-c2nc(N3CCOCC3)c3oc4ncccc4c3n2)c1 [PI-103] ? 81.2

Further, for C=C1CC[C@H](O)C/C1=C/C=C1\CCC[C@]2(C)[C@@H]([C@H](C)CCCC(C)C)CC[C@@H]12 [cholecalciferol] ? 101

Further, for Cc1cccc(CN2CCN(C(c3ccccc3)c3ccc(Cl)cc3)CC2)c1 (configuration not stated) [meclizine] ? 97.1

Further, for C[C@H]1NCc2cc(-c3ccc4c(=O)c(C(=O)O)cn(C5CC5)c4c3OC(F)F)ccc21 [garenoxacin] ? 102

Further, for NCCNC(=O)c1ccc(Cl)cn1 [lazabemide] ? 101

Further, for Oc1cc2c(c(Cl)c1O)CCNCC2c1ccccc1 (configuration not stated) ? 85.4

Further, for `Oc1ccc2[nH]cc(C3=CCNCC3)c2n1` ? 97

Further, for O=C1c2cccc3c2[C@H](CCC3)CN1[C@@H]1CN2CCC1CC2 [palonosetron] ? 90.8

Further, for CCCN1CCC[C@@H]2Cc3n[nH]cc3C[C@H]21 [quinpirol-(-)] ? 99.8

FYI, the data here is from the supplement of paper PMC13380429.
